Attribution: patent US20140249135A1

Biological target: Pim2 kinase (Homo sapiens)
Sequence (Q9P1W9 whole entry): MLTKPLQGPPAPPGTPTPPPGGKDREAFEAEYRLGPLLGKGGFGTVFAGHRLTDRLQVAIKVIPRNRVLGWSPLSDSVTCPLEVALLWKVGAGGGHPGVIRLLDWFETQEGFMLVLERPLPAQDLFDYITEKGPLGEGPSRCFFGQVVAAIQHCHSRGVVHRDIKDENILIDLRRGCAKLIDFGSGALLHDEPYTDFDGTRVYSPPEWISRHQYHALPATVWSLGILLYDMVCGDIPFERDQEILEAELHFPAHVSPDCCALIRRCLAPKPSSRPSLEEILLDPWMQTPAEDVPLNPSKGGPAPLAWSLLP
Experiment: Pim2 ATP depletion assay;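 note: Luciferase-based luminescent readout of ATP remaining after PIM2 phosphorylates a BAD peptide, final 5 nM enzyme, 4 µM ATP, 10 µM peptide, 2.5% DMSO, run to roughly half ATP consumption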
Format: biochemical
Details: read-out: IC50 (μM) PIM2
// values below are reported IC50

Lab request: please report IC50 under test system Pim2 kinase (Homo sapiens) for Nc1ncc(Br)nc1C(=O)Nc1[nH]c(=O)ncc1N1CCC(C(F)(F)F)CC1
< 1 µM

Give IC50 (Pim2 kinase (Homo sapiens)) of the following compound: COc1ccc(F)c(-c2cnc(N)c(C(=O)Nc3ccccc3N3CCC(N)CC3)n2)c1
< 1 µM

---

Biological target: KDR kinase (Homo sapiens, UniProt P35968)
Sequence (P35968 20-1356): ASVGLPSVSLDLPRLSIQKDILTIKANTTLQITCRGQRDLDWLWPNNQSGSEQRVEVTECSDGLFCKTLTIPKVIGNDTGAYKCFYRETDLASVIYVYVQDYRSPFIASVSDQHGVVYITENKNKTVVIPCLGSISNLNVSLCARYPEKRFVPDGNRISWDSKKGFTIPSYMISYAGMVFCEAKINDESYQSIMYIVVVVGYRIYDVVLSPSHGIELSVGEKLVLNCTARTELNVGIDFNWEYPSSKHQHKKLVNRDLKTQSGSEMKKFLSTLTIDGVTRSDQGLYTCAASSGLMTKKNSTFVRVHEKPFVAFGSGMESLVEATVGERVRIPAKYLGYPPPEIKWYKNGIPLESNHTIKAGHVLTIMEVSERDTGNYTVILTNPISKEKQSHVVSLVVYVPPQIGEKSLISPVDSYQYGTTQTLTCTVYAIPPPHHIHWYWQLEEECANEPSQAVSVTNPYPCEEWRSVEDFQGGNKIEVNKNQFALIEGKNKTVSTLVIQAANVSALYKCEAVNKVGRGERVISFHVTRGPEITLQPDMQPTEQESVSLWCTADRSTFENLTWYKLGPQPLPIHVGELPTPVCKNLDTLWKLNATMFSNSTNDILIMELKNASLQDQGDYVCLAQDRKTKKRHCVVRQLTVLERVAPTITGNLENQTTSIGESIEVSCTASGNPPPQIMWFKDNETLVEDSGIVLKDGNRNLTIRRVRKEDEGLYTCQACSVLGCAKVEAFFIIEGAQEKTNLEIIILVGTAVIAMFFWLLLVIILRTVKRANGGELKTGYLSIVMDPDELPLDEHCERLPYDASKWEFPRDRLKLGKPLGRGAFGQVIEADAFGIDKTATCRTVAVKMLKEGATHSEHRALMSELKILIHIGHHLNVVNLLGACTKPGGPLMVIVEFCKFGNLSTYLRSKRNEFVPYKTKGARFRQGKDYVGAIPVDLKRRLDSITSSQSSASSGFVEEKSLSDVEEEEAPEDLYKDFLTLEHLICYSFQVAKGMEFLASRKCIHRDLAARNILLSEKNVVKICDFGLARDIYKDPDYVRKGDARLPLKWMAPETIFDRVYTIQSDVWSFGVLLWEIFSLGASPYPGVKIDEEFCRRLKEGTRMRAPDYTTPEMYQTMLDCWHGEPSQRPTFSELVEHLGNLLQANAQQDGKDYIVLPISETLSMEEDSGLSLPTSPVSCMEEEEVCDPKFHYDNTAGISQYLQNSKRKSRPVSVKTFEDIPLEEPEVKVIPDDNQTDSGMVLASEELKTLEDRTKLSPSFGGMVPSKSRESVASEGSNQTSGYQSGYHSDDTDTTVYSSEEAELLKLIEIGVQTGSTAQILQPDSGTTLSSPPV
Assay: KDR AlphaScreen assay
Conditions: KDR IC50 (μM)
Each item that follows carries a reported IC50.

Please review the following examples before continuing.
>>> val("Nc1ccc(-c2ccc(N)c(C(=O)Nc3cnccc3N3CCC[C@H](N)C3)n2)c(F)n1")
"> 25 µM"
>>> val("Nc1nccnc1C(=O)Nc1cnccc1N1CCCC(N)C1 (centres unmarked)")
"> 25 µM"
>>> val("NCC1CCCN(c2cnc(=O)[nH]c2NC(=O)c2nccnc2N)C1 (centres unmarked)")
"1 to 10 µM"
>>> val("Nc1cnc(-c2ccccc2F)nc1C(=O)Nc1cnccc1N1CCCC(O)(C(F)(F)F)C1 (centres unmarked)")
"10 to 25 µM"

Okay, now this compound:
I would be grateful if you could share the reported IC50 for Nc1ncc(-c2ccoc2)nc1C(=O)Nc1ccccc1N1CCNCC1 .
1 to 10 µM
